src = PubChem BioAssay (NCATS)

Item-by-item account of Potency
System: SC27B
Experiment: qHTS profiling for inhibitors of Plasmodium falciparum proliferation (AID 504749); note: potency is the fitted concentration of half-maximal effect; nearly all actives have a fitted effect of over 60% in size
Settings: P. falciparum in erythrocytes, SYBR Green DNA, 72 h; series mostly up to 28.7 µM
Inconclusive results are not listed. Active and inactive are the calls of the source. Calls come from the whole dose curve; as a rule, active = well fitted inhibition curve with a large enough effect; inconclusive = small, poorly fitted or top-dose-only effect; inactive = flat fitted curve, though single readings scatter.

Answered examples (2):
CCC(C(=O)O)C1CCC(C)C(C(C)C(O)C(C)C(=O)C(CC)C2OC3(C=CC(O)[C@@]4(CC[C@](C)(C5CC[C@@](O)(CC)C(C)O5)O4)O3)C(C)CC2C)O1 (some centres undefined) ... 794 nM (active)
CCCCCCCCCCCC(CC1OC(=O)C1CCCCCC)OC(=O)C(CC(C)C)NC=O (centres undefined) ... 447 nM (active)

Task: What measured Potency goes with COc1cccc2c1C(=O)c1c(O)c3c(c(O)c1C2=O)C[C@@](O)(C(=O)CO)C[C@@H]3O[C@H]1C[C@H](N)[C@H](OC2CCCCO2)[C@H](C)O1 (some centres undefined) ?
Output: 2820 nM (active)
